- test.details: Cyclic voltammetry of menadione derivatives
- Assay type: physicochemical
- test.conditions: second wave; irr: irreversible reduction
assay.endpoint: Epa2 (V)

Record `CC1=C(COc2ccc(C#N)cc2)C(=O)c2ccccc2C1=O` . Reported Epa2: −1.100

Record `COc1ccc(OCC2=C(C)C(=O)c3ccccc3C2=O)cc1C(F)(F)F` . Reported Epa2: −1.120

====

- assay.system: Placenta wild type hTrxR (Homo sapiens, UniProt Q16881)
- Sequence (Q16881 151-649): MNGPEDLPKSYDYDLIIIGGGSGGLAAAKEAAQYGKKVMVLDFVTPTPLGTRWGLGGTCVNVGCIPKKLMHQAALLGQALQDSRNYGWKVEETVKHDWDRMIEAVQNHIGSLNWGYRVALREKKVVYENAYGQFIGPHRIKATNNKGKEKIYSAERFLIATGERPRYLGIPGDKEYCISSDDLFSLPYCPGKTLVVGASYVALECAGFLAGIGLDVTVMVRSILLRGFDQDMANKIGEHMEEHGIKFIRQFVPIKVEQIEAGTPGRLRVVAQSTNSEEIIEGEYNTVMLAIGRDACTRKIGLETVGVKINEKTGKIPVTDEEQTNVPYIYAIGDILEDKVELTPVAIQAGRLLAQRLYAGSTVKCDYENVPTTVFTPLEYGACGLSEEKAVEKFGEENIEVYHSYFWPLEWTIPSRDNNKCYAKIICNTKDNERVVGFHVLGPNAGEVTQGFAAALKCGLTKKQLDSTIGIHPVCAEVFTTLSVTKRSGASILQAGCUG
- test.details: hTrxR Trx assay
- Format: biochemical
- test.conditions: IC50 hTrxR, text summary spanning the Trx assay and the DTNB assay
pIC50: −log10 of the molar value.
assay.endpoint: pIC50

# example entries with known answers
Observed pIC50, Placenta wild type hTrxR (Homo sapiens, UniProt Q16881), `N#Cc1ccc(OCC2=C(C(F)F)C(=O)c3ccccc3C2=O)cc1` : 7.85 to 7.89

Observed pIC50, Placenta wild type hTrxR (Homo sapiens, UniProt Q16881), `COc1c(F)cc(OCC2=C(C)C(=O)c3ccccc3C2=O)cc1F` : 5.70

Observed pIC50, Placenta wild type hTrxR (Homo sapiens, UniProt Q16881), `CC1=C(COc2ccc(C(=O)O)cc2)C(=O)c2ccccc2C1=O` : 5.52 to 5.70

Observed pIC50, Placenta wild type hTrxR (Homo sapiens, UniProt Q16881), `CC1=C(COc2cccc(C(F)(F)F)c2)C(=O)c2ccccc2C1=O` : 5.52 to 5.82

Observed pIC50, Placenta wild type hTrxR (Homo sapiens, UniProt Q16881), `CC1=C(COc2ccc(Br)cc2)C(=O)c2ccccc2C1=O` : 6.10

***
Observed pIC50, Placenta wild type hTrxR (Homo sapiens, UniProt Q16881), `CC1=C(COc2ccc(C#N)cc2)C(=O)c2ccccc2C1=O` : 5.82 to 5.92

Observed pIC50, Placenta wild type hTrxR (Homo sapiens, UniProt Q16881), `CC1=C(COc2ccc(Cl)cc2)C(=O)c2ccccc2C1=O` : 6.15

Observed pIC50, Placenta wild type hTrxR (Homo sapiens, UniProt Q16881), `COc1ccc(OCC2=C(C)C(=O)c3ccccc3C2=O)cc1C(F)(F)F` : 5.82 to 6.10

Origin of the recorded values: paper PMC4804716
